# Test system: HOP-92
# Test name: NCI tumour cell line growth inhibition, 48 h
Active and inactive are the calls of the source. No stated cut-off is given here; in the data, active = GI50 up to about 1.1 µM and inactive = higher.
Outcomes: active, inactive

{"columns": ["Compound", "Class"],
 "data": [
  ["CC(=O)C1C(=O)C(=O)N(c2ccc([N+](=O)[O-])cc2[N+](=O)[O-])C1=O (stereo not given)", "inactive"],
  ["N=C(c1ccccc1)N(c1ccccc1)c1ccccc1", "active"],
  ["[N-]=[N+]=Nc1c(Cl)c(Cl)nc2ccccc12", "inactive"],
  ["C1CCN2CC3CCCN4CCCC(C2C1)C34 (stereo not given)", "inactive"],
  ["COC(=O)c1c(O)ccc2c1c1cc3ccccc3c(O)c1n2Cc1ccccc1Cl", "inactive"],
  ["Cc1ncc(CSC(=N)N)n1Cc1ccccc1", "inactive"],
  ["CC(CNC(N)=O)NC(N)=O (stereo not given)", "inactive"],
  ["Nc1ccc(-c2nc3ccccc3s2)cc1Br", "inactive"],
  ["c1cncc(C2c3[nH]c4ccccc4c3CCN2CCCN2CCCCC2)c1 (stereo not given)", "inactive"],
  ["CN1CCN(C(=S)N(C(=O)c2ccc(Cl)cc2)C2CCCCC2)CC1", "inactive"]
]}
